- study.target: Recombinant human Gal3 (rhGal3) (TrueBinding, #QC200361) (human, UniProt P17931 2-250)
- measurement.notes: cell-based or functional assay
Rule: % inhibition of CD62L shedding under 90% gives rule not met, otherwise rule met.

Req: Textbook exercise: given the entry F846C.1B2 (antibody, human IgG4 S228P, kappa, V domains shown) VH: QIQLVQSGPELKKPGETVKISCKASGYTFTNYGMNWVKQAPGKGLKWMGWINTYTGEPSYADDFKGRFAFSLETSASTAYLQINNLKNEDMATYFCARWGGYAGDYYAMDFWGQGTSVTVSS VL: NIWLTQSPSSLAVSAGEMVTMTCKSSQSVLYSSNQKNYLAWYQQKPGQSPKLLIYWASTRESGVPDRFTGSGSGTDFSLTISSVQAEDLAVYYCHQYLSSLTFGAGTKLELKR , state whether its % inhibition of CD62L shedding is greater than or equal to 90%.
Resp: rule met

Req: Now give it for 6B3.2D3 (antibody, human IgG4 S228P, kappa, V domains shown) VH: QVQLKQSGPGLVQPSQSLSITCTVSGFSLTSYGVHWVRQPPGKGLEWLGVIWSGGSTDYNAAFISRLSISKDNSKSQVFFKMNSLQADDTAIYYCAKGPYDYDLGWFAYWGQGTLVTVSA VL: SIVMTQTPKFLLVSAGDRVTITCKASQSVSNDVAWYQQKPGQSPKLLIYYASNRYTGVPDRFTGSGYGTDFTFTISTVQAEDLAVYFCQQDYTSPYTFGGGTKLEIKR too.
Resp: rule met

Req: Check 847.15D12 (antibody, V domains shown) VH: QVQLQQSGAELMKPGASVKISCKATGYTFTNYWIEWVKQRPGHGLEWIGEFLPGDGSSHYNEKFKGKATFTSDTSSNTAYIHLTSLTSEDSAVYYCVRDDYDSDYWAQGTTLTVSS VL: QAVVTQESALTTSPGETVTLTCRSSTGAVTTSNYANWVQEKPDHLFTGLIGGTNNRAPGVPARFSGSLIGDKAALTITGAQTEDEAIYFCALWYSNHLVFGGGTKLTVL too.
Resp: rule not met

Req: Next up: TB006 (antibody, human IgG4 S228P, kappa, V domains shown, also called 4A11.H3L1; IMT006a) VH: QVQLVQSGAEVKKPGASVKVSCKASGYSFTNYYMHWVRQAPGQRLEWMGWIYPGSGNTNYNEKFQGRVTITADTSASTAYMELSSLRSEDTAVYYCSTAPGGFDVWGQGTTVTVSS VL: DIVMTQTPLSLSVTPGQPASISCKSSKSLLHSDGITYLYWYLQKPGQSPQLLIYRMSNLASGVPDRFSGSGSGTDFTLKISRVEAEDVGVYYCAQMLEFPLTFGQGTKLEIKR
Resp: rule not met

Req: What do you have for 9H2.2H10 (antibody, human IgG4 S228P, kappa, V domains shown) VH: QVQLQQPGAELVGPGSSVKLSCKASGYTFTNYWIHWVKQRPLQGLEWIGNIDPSDSETHYNQKFKDKATLTVDKSSSTAYMQLSSLTSEDSAVYYCARHGYYDYWGQGTTLTVSS VL: DIVMTQSHKFMSTSVGDRVSITCKASQDVSTAVAWYQQKPGQSPKLLIYWASTRHTGVPDRFTGSGSGTDYTLTISSVQAEDLALYYCQQHYTTPLTFGAGTKLELKR ?
Resp: rule not met
